# procedure-summary: in vivo
# Parameters: species or system nude mice
# settings: nude, mouse, total radioactivity, Tumor-to-tissue ratio Bone
*1 amine or outer side, *2 acyl side, *3 side chain or, on linkers, in order; H or OH if unused. Where a SMILES comes first, the peptide text is derived from it. Side-chain parts run from the residue outwards. [ ]: non-standard residue; d: D form. The star is where a group is joined. DOTA = O=C(O)CN1CCN(CC(=O)O)CCN(CC(=O)*)CCN(CC(=O)O)CC1; NH(2-(imidazol-4-yl)ethyl) = c1ncc(CCN*)[nH]1; Suc = O=C(CCC(=O)[*:2])[*:1]
property-measured: tissue to tissue ratio at 6 h
Enter the number alone.

Prompt line: Any idea what tissue to tissue ratio at 6 h was measured for NC(=O)[C@H](CCCCNC(=O)CNC(=O)CCC(=O)NCCc1cnc[nH]1)NC(=O)[C@@H](Cc1ccc(O)cc1)NC(=O)[C@H](CCCCNC(=O)CNC(=O)CCC(=O)NCCc1cnc[nH]1)NC(=O)[C@H](Cc1ccccc1)NC(=O)CN1CCN(CC(=O)O)CCN(CC(=O)O)CCN(CC(=O)O)CC1 [Ga-67-IMP 241, metal not drawn] ({DOTA}-FK([Gly-Suc-NH(2-(imidazol-4-yl)ethyl)])[dY]K([Gly-Suc-NH(2-(imidazol-4-yl)ethyl)])-NH2) ?
Response line: 53

###

# procedure-summary: in vivo
# Design: species or system nude mice
# settings: nude, mouse, total radioactivity, Tumor-to-tissue ratio Lungs
*1 amine or outer side, *2 acyl side, *3 side chain or, on linkers, in order; H or OH if unused. Where a SMILES comes first, the peptide text is derived from it. Side-chain parts run from the residue outwards. [ ]: non-standard residue; d: D form. The star is where a group is joined. DOTA = O=C(O)CN1CCN(CC(=O)O)CCN(CC(=O)*)CCN(CC(=O)O)CC1; NH(2-(imidazol-4-yl)ethyl) = c1ncc(CCN*)[nH]1; Suc = O=C(CCC(=O)[*:2])[*:1]
property-measured: tissue to tissue ratio at 4 h
Reply with just the number.

Prompt line: I am curious: what tissue to tissue ratio at 4 h value has been reported for NC(=O)[C@H](CCCCNC(=O)CNC(=O)CCC(=O)NCCc1cnc[nH]1)NC(=O)[C@@H](Cc1ccc(O)cc1)NC(=O)[C@H](CCCCNC(=O)CNC(=O)CCC(=O)NCCc1cnc[nH]1)NC(=O)[C@H](Cc1ccccc1)NC(=O)CN1CCN(CC(=O)O)CCN(CC(=O)O)CCN(CC(=O)O)CC1 [Ga-67-IMP 241, metal not drawn] ({DOTA}-FK([Gly-Suc-NH(2-(imidazol-4-yl)ethyl)])[dY]K([Gly-Suc-NH(2-(imidazol-4-yl)ethyl)])-NH2) ?
Response line: 13.5

###

# procedure-summary: in vivo
# Set-up: species or system nude mice
# settings: nude, mouse, total radioactivity, Tumor-to-tissue ratio Sm. Intestine
*1 amine or outer side, *2 acyl side, *3 side chain or, on linkers, in order; H or OH if unused. Where a SMILES comes first, the peptide text is derived from it. Side-chain parts run from the residue outwards. [ ]: non-standard residue; d: D form. The star is where a group is joined. DOTA = O=C(O)CN1CCN(CC(=O)O)CCN(CC(=O)*)CCN(CC(=O)O)CC1; NH(2-(imidazol-4-yl)ethyl) = c1ncc(CCN*)[nH]1; Suc = O=C(CCC(=O)[*:2])[*:1]
property-measured: tissue to tissue ratio at 4 h
Enter a number only.

Prompt line: So what does the record say about tissue to tissue ratio at 4 h for NC(=O)[C@H](CCCCNC(=O)CNC(=O)CCC(=O)NCCc1cnc[nH]1)NC(=O)[C@@H](Cc1ccc(O)cc1)NC(=O)[C@H](CCCCNC(=O)CNC(=O)CCC(=O)NCCc1cnc[nH]1)NC(=O)[C@H](Cc1ccccc1)NC(=O)CN1CCN(CC(=O)O)CCN(CC(=O)O)CCN(CC(=O)O)CC1 [Ga-67-IMP 241, metal not drawn] ({DOTA}-FK([Gly-Suc-NH(2-(imidazol-4-yl)ethyl)])[dY]K([Gly-Suc-NH(2-(imidazol-4-yl)ethyl)])-NH2) ?
Response line: 22
